assay: Induction of NQO1 activity in mouse Hepa-1c1c7 cells at 5 uM after 48 hrs relative to control
Binarize fold change (FC) at 2; below is label 1, at or above is label 0.

[[record]]
compound = "O=C1/C(=C/c2ccc(Cl)cc2)Oc2cc(O)ccc21 [6-HYDROXY-4'-CHLORO AURONE]"
classification = "label 1"

[[record]]
compound = "O=C1/C(=C/c2ccc(O)cc2)Oc2cc(O)cc(O)c21"
classification = "label 1"

[[record]]
compound = "COc1cc(OC)c2c(c1)OC(Cc1ccccc1O)C2=O (configuration not stated)"
classification = "label 1"

[[record]]
compound = "COc1cc(OC)c2c(c1)O/C(=C\\c1cccc(Cl)c1)C2=O"
classification = "label 0"

[[record]]
compound = "Cc1ccc(/C=C2\\Oc3ccc(O)cc3C2=O)cc1"
classification = "label 1"

[[record]]
compound = "COc1cccc(/C=C2\\Oc3cc(OC)cc(OC)c3C2=O)c1"
classification = "label 1"

[[record]]
compound = "COc1cc(OC)c2c(c1)O/C(=C\\c1ccc(O)cc1O)C2=O"
classification = "label 1"

[[record]]
compound = "COc1ccc(/C=C2\\C(=O)Oc3ccc(O)cc32)cc1"
classification = "label 1"

[[record]]
compound = "Cc1ccc(/C=C2\\Oc3cc(O)cc(O)c3C2=O)cc1"
classification = "label 1"

[[record]]
compound = "O=C1/C(=C/c2ccccc2F)Oc2cc(O)cc(O)c21"
classification = "label 0"

[[record]]
compound = "Cc1ccc(/C=C2\\Oc3cc(O)ccc3C2=O)cc1"
classification = "label 1"

[[record]]
compound = "COc1ccccc1/C=C1\\Oc2ccc(O)cc2C1=O"
classification = "label 0"

[[record]]
compound = "COc1cc(OC)c2c(c1)O/C(=C\\c1ccc(O)cc1)C2=O"
classification = "label 1"

[[record]]
compound = "COc1cc(OC)c2c(c1)O/C(=C\\c1cccnc1)C2=O"
classification = "label 1"

[[record]]
compound = "COc1ccc(/C=C2\\Oc3cc(OC)cc(OC)c3C2=O)cc1"
classification = "label 1"

[[record]]
compound = "COc1cc(OC)c2c(c1)O/C(=C\\c1ccccc1O)C2=O"
classification = "label 0"

[[record]]
compound = "COc1cc(OC)c2c(c1)O/C(=C\\c1ccccc1Cl)C2=O"
classification = "label 0"


---

assay: Induction of NQO1 activity in mouse Hepa-1c1c7 cells at 25 uM after 48 hrs relative to control
Here the recorded fold change (FC) is given for each entry.
value type: fold change (FC)

[[record]]
chem_smiles = "COc1cc(OC)c2c(c1)O/C(=C\\c1ccncc1)C2=O"
value_type = "fold change (FC)"
result_value = 4.5

[[record]]
chem_smiles = "O=C1/C(=C/c2ccccc2Cl)Oc2ccccc21"
value_type = "fold change (FC)"
result_value = 1.17

[[record]]
chem_smiles = "O=C1Oc2ccc(O)cc2/C1=C/c1cccc(F)c1"
value_type = "fold change (FC)"
result_value = 1.32

[[record]]
chem_smiles = "N#Cc1ccc(/C=C2\\Oc3cc(O)ccc3C2=O)cc1"
value_type = "fold change (FC)"
result_value = 1.31

[[record]]
chem_smiles = "COc1cc(OC)c2c(c1)O/C(=C\\c1ccccc1C)C2=O"
value_type = "fold change (FC)"
result_value = 1.42

[[record]]
chem_smiles = "O=C1/C(=C/c2ccccc2)Oc2cc(O)cc(O)c21"
value_type = "fold change (FC)"
result_value = 1.3

[[record]]
chem_smiles = "COc1cccc(/C=C2\\Oc3cc(OC)cc(OC)c3C2=O)c1"
value_type = "fold change (FC)"
result_value = 1.59

[[record]]
chem_smiles = "Cc1ccc(/C=C2\\Oc3cc(O)cc(O)c3C2=O)cc1"
value_type = "fold change (FC)"
result_value = 1.49

[[record]]
chem_smiles = "O=C1/C(=C/c2ccc(Cl)cc2)Oc2cc(O)cc(O)c21"
value_type = "fold change (FC)"
result_value = 1.7

[[record]]
chem_smiles = "COc1cc(OC)c2c(c1)O/C(=C\\c1ccc(O)cc1)C2=O"
value_type = "fold change (FC)"
result_value = 1.29

[[record]]
chem_smiles = "O=C1/C(=C/c2cccc(O)c2)Oc2cc(O)ccc21"
value_type = "fold change (FC)"
result_value = 2.92

[[record]]
chem_smiles = "O=C1/C(=C/c2cccc(O)c2)Oc2cc(O)cc(O)c21"
value_type = "fold change (FC)"
result_value = 1.58

[[record]]
chem_smiles = "O=C1Oc2ccc(O)cc2/C1=C/c1ccccc1F"
value_type = "fold change (FC)"
result_value = 1.34

[[record]]
chem_smiles = "COc1cc(OC)c2c(c1)OC(=O)/C2=C\\c1ccccc1OC"
value_type = "fold change (FC)"
result_value = 3.57

